Just for reference, PubChem BioAssay (NCI) is where these values come from.

Tested on: CAKI-1 renal
Method Description: NCI tumour cell line growth inhibition, 48 h

Compound	Tgt	TGI
Cc1ccc2nc(Cl)c(/C=N/N3C(=O)/C(=C/Cc4ccco4)N=C3c3ccccc3)cc2c1	CAKI-1 renal	> 100 µM
O=C1NCN(c2ccccc2)C12CCN(CCCSc1ccc(F)cc1)CC2	CAKI-1 renal	> 91.9 µM
O=C1c2ccc3ccccc3c2CCC1N1CCCCC1 (stereo unspecified)	CAKI-1 renal	29.5 µM
COc1ccc(C2C3=C(CCCC3=O)N(c3ccccc3)C3=C2C(=O)CCC3)cc1	CAKI-1 renal	> 100 µM
COC(=O)/C(Cl)=C1/CC1COCc1ccccc1 (stereo unspecified)	CAKI-1 renal	52.4 µM
COC(=O)c1cc(O)ccc1NC(=O)c1ccc(O)cc1	CAKI-1 renal	> 100 µM
Cc1cc(-c2ccc(Cl)cc2)c(C#N)c(=S)n1C1OC(CO)C(O)C(O)C1O (stereo unspecified)	CAKI-1 renal	> 100 µM
CC(C)[C@H](NC(=O)[C@@H](O)[C@H](N)Cc1ccccc1)C(=O)N[C@@H](Cc1ccccc1)C(=O)O	CAKI-1 renal	> 100 µM
Cc1ccccc1Nc1cn(CCOc2ccccc2)c(=O)n(CCOc2ccccc2)c1=O	CAKI-1 renal	> 100 µM
CC1(CC(=O)OC(C#C[Si](C)(C)C)Cc2ccccc2)OCCO1 (stereo unspecified)	CAKI-1 renal	> 100 µM
C=CCn1c(=S)sc2c(=O)[nH]cnc21	CAKI-1 renal	> 100 µM

---

Test system: HOP-92 NSCLC
Method Description: NCI tumour cell line growth inhibition, 48 h
// TGI lookup, one value per entry
Observed Property: TGI

Molecule	Tgt	Observed Property	Result
C[C@]12CCC(=O)C=C1CC[C@@H]1[C@@H]2CC[C@]2(C)C(=O)/C(=C\c3ccccc3)C[C@@H]12	HOP-92 NSCLC	TGI	> 86.8 µM
Cc1c(C)c(C)c(CSC(=N)N)c(C)c1C	HOP-92 NSCLC	TGI	30.9 µM
Cc1ccccc1C(C#N)/C(=N/NC(=O)C(=O)NN)C(=O)Nc1cccc(C(F)(F)F)c1 (centres undefined)	HOP-92 NSCLC	TGI	> 100 µM
Cn1c(=O)c2c(nc3sc4ncccc4c(=O)n32)n(C)c1=O	HOP-92 NSCLC	TGI	> 100 µM

---

Parameter TGI: see the listing below.
Tested on: OVCAR-8 ovarian
Method Description: NCI tumour cell line growth inhibition, 48 h

Compound	TGI
N.N.N.N.O=S(=O)([O-])[O-].[Co+3].[OH3+].[OH3+]	> 100 µM
O=C(/C=C/c1ccc2c(c1)OCO2)c1ccccc(=O)c1O	54.2 µM
COc1ccc2cc(C(=O)/C=C/c3ccccc3OC)ccc2c1	7.34 µM
CSc1ccc2c(c1)C(=O)c1c-2n(CCCN=[N+]=[N-])c(=O)c2cc([N+](=O)[O-])ccc12	> 100 µM
O=C(O)CCCC#CCCCC(=O)O	> 100 µM
CCOC(=O)C(SCCO)C(C(=O)OCC)n1cc(C)c(=O)[nH]c1=O (centres undefined)	> 62.7 µM
COc1cc([C@@H]2c3cc4c(cc3[C@H](O)[C@H]3COC(=O)[C@@H]23)OCO4)cc(OC)c1OC	> 100 µM
O=C(CN/C=C\C(=O)c1cc(Cl)ccc1Cl)c1ccccc1	71.4 µM
CC(=O)OCC(OC(C)=O)C(OC(C)=O)C(OC(C)=O)C(/C=N\Nc1nc2ccccc2c(=O)[nH]1)OC(C)=O (centres undefined)	> 100 µM
